system under test: CXCR4 (Homo sapiens, UniProt P61073)
Construct: a human T cell strain in which CXCR4 is known to be expressed; endogenous in cells
Sequence (P61073 whole entry): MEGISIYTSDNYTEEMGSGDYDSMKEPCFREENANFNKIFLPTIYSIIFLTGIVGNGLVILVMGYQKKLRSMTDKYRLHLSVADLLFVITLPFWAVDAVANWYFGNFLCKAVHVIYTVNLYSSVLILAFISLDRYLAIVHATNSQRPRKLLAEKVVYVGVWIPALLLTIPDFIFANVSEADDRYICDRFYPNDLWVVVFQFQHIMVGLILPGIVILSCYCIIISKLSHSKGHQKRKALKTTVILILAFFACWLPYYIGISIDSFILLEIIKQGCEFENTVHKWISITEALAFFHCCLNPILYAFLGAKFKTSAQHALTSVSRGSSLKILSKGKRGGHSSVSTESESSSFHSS
method notes: Inhibition of binding human SDF-1 (125I-SDF-1) to CEM cells
measurement setup: 125I-SDF-1 binding to human T cell strain CEM cells, 4° C., 60 minutes
Below is a list of entries, each paired with its recorded IC50 value.
Provide the reading as a plain figure in nM.

Solved entries:
O=C(O)CCn1ccnc1CN(Cc1ccc(CN2CCC3(CCN(C4CCCCC4)CC3)C2)cc1)Cc1ncc[nH]1: 3.4
CCOC(=O)CCCn1ccnc1CN(Cc1ccc(CN2CCC3(CCN(CC(C)C)CC3)C2)cc1)Cc1ncc[nH]1: 13.7
CC(OC(=O)CCn1ccnc1CN(Cc1ccc(CN2CCC3(CCN(C4CCCCC4)CC3)C2)cc1)Cc1ncc[nH]1)OC(=O)OC1CCCCC1 (stereo not shown): 20.4

Give IC50; test system CXCR4 (Homo sapiens, UniProt P61073); molecule `CCOC(=O)CCCn1ccnc1CN(Cc1ccc(CN2CCC3(CCN(C(CC)CC)CC3)C2)cc1)Cc1ncc[nH]1` 11.8

Give IC50; test system CXCR4 (Homo sapiens, UniProt P61073); molecule `CCC(CC)N1CCC2(CCN(Cc3ccc(CN(Cc4ncc[nH]4)Cc4nccn4CCCC(=O)O)cc3)C2)CC1` 12

Give IC50; test system CXCR4 (Homo sapiens, UniProt P61073); molecule `O=C(O)Cn1ccnc1CN(Cc1ccc(CN2CCC3(CCN(C4CCCCC4)CC3)C2)cc1)Cc1ncc[nH]1` 4.8

Give IC50; test system CXCR4 (Homo sapiens, UniProt P61073); molecule `CC(C)CN1CCC2(CC1)CCN(Cc1ccc(CN(Cc3ncc[nH]3)Cc3nccn3CCCC(=O)O)cc1)C2` 18.7

* * *

Tested on: CHL/IU (cell line derived from a Chinese hamster lung)
method notes: Phospholipidosis detecting system using fluorescent labeling phospholipid analog (NBD-PE)
Format: cell-based
measurement setup: compound dose: 100 μM; CHL/IU cells, NBD-PE, about 24 hours
Below is a list of entries, each paired with its recorded Rate of increase of phopholipid accumulation (%) value.
Please answer using a numeric value trailed by its unit.

O=C(O)Cn1ccnc1CN(Cc1ccc(CN2CCC3(CCN(C4CCCCC4)CC3)C2)cc1)Cc1ncc[nH]1 [Example 9]: 10%
O=C(O)CCn1ccnc1CN(Cc1ccc(CN2CCC3(CCN(C4CCCCC4)CC3)C2)cc1)Cc1ncc[nH]1 [Example 9 (1)]: 6%
CC(C)CN1CCC2(CC1)CCN(Cc1ccc(CN(Cc3ncc[nH]3)Cc3nccn3CCCC(=O)O)cc1)C2 [Example 38 (1)]: 8%

Continue with the next compound.
Give Rate of increase of phopholipid accumulation (%); test system CHL/IU (cell line derived from a Chinese hamster lung); compound CCC(CC)N1CCC2(CCN(Cc3ccc(CN(Cc4ncc[nH]4)Cc4nccn4CCCC(=O)O)cc3)C2)CC1 [Example 38 (3)] 11%

* * *

method notes: Artificial lipid membrane binding using Biacore S51 system (in vitro phospholipidosis risk)
measurement setup: compound 50 μM in PBS/5% DMSO (pH 7.4), 37° C., DOPA liposome on Sensor Chip L1
measurement name: Corrected value of binding response (RU)
Provide the reading as a plain figure in RU.

Solved entries:
CCC(CC)N1CCC2(CCN(Cc3ccc(CN(Cc4ncc[nH]4)Cc4nccn4CCCC(=O)O)cc3)C2)CC1 [Example 38 (3)]: 98.9
O=C(O)Cn1ccnc1CN(Cc1ccc(CN2CCC3(CCN(C4CCCCC4)CC3)C2)cc1)Cc1ncc[nH]1 [Example 9]: 59.0
O=C(O)CCn1ccnc1CN(Cc1ccc(CN2CCC3(CCN(C4CCCCC4)CC3)C2)cc1)Cc1ncc[nH]1 [Example 9 (1)]: 52.0

Continue with the next compound.
Read off the recorded Corrected value of binding response (RU) for CC(C)CN1CCC2(CC1)CCN(Cc1ccc(CN(Cc3ncc[nH]3)Cc3nccn3CCCC(=O)O)cc1)C2 [Example 38 (1)] 5.4
